Protein target, amino acids: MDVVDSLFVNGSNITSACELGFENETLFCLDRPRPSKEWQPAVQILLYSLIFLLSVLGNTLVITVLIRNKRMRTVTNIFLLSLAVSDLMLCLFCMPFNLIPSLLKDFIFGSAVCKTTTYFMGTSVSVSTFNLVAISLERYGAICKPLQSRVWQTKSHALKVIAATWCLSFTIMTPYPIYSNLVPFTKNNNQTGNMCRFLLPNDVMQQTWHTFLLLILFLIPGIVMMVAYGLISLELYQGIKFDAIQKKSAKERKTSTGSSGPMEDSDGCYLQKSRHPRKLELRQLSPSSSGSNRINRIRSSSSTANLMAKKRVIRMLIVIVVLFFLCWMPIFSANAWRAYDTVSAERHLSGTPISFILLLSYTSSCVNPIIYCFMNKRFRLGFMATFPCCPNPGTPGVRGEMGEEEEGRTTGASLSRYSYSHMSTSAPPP
Value Kind: pIC50
pIC50 here: minus log base 10 of the concentration, concentration in moles per litre.

Form: compound = COc1ccc(NC(=O)N[C@@H]2C[C@H](c3ccccc3C)C[C@H](c3ccccc3)N(CC(=O)NC(C)(C)C)C2=O)cc1 ; pIC50 = 8.66

###

Target: Cholecystokinin receptor type A (Cavia porcellus, UniProt Q63931)
Sequence (Q63931 whole entry): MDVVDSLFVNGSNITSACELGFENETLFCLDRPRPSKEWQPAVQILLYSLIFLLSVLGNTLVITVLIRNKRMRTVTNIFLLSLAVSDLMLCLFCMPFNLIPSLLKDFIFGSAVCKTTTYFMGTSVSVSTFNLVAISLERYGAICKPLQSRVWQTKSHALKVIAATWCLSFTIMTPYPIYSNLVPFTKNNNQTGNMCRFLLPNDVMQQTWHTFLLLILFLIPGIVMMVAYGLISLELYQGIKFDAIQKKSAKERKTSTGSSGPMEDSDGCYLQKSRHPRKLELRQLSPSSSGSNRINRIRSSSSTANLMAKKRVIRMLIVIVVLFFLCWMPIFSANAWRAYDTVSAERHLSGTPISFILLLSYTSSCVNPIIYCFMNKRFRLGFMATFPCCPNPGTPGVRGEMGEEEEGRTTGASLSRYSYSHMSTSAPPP
Entries and their IC50

Form: molecule = Cc1ccc([C@H]2C[C@@H](c3ccccc3)C[C@@H](NC(=O)Nc3cccc(C)c3)C(=O)N2CC(=O)NC(C)(C)C)cc1 ; IC50 = 970 nM

Form: molecule = Cc1cccc(NC(=O)N[C@@H]2C[C@H](c3ccccc3C)C[C@H](c3ccccc3)N(CC(=O)Nc3ccc(Cl)cc3)C2=O)c1 ; IC50 = > 10 nM

Form: molecule = Cc1cccc(NC(=O)N[C@H]2C[C@H](c3ccccc3)C[C@H](c3ccccc3)N(CC(=O)NC(C)(C)C)C2=O)c1 ; IC50 = 10 nM

Form: molecule = Cc1ccc([C@@H]2C[C@H](c3ccccc3)N(CC(=O)NC(C)(C)C)C(=O)[C@H](NC(=O)Nc3cccc(C)c3)C2)cc1 ; IC50 = 1.1 nM

Form: molecule = Cc1cccc(NC(=O)N[C@@H]2C[C@H](c3ccccc3)C[C@H](c3ccc(F)cc3)N(CC(=O)NC(C)(C)C)C2=O)c1 ; IC50 = 2.8 nM

###

Entries and their pIC50
Molecular target: Cholecystokinin receptor type A (Cavia porcellus, UniProt Q63931)
pIC50 here: minus log base 10 of the concentration, concentration in moles per litre.

Solved cases (3 shown):
Cc1cccc(NC(=O)N[C@@H]2C[C@H](c3ccccc3C)C[C@H](c3ccccc3)N(CC(=O)NC(C)(C)C)C2=O)c1 (stereo in doubt; (-)-10i) :: 6.03
Cc1cccc(NC(=O)N[C@@H]2C[C@H](c3ccccc3C)C[C@H](c3ccccc3)N(CC(=O)NC(C)(C)C)C2=O)c1 (stereo in doubt; 10i) :: 6.24
Cc1cccc(NC(=O)N[C@@H]2C[C@H](c3ccccc3)C[C@H](c3cccc(F)c3)N(CC(=O)NC(C)(C)C)C2=O)c1 :: 9.00

// below: pIC50 requested for another compound
Form: compound = Cc1cccc(NC(=O)N[C@@H]2C[C@H](c3ccccc3)C[C@H](c3cccc(C)c3)N(CC(=O)NC(C)(C)C)C2=O)c1 ; pIC50 = 8.80

meta.source: ChEMBL document CHEMBL1151044
